Here, each record is paired with measured inhibition data.
Target: Protein-arginine deiminase type-3 (Homo sapiens)
Test: single-point PAD isozyme enzyme inhibition – biochemical, colorimetric, BAEE substrate, HTS hits, selectivity assay for PAD4 inhibitor project, late-stage follow-up (AID 588488)
Settings: Recombinant PAD1-4, BAEE citrulline colorimetric absorbance; PAD3; at 10 µM; active compounds read high
// note: answer is a bare numeric in %

[[record]]
compound = "S=C(NCc1ccco1)Nc1cccc(Cl)c1"
metric = "inhibition"
reported = -2

[[record]]
compound = "Cc1ccc(C2CC(=O)Oc3cc(O)ccc32)cc1 (configuration not stated)"
metric = "inhibition"
reported = -3

[[record]]
compound = "CCOc1nc(Nc2ccc(OC)cc2OC)nc(OCC)n1"
metric = "inhibition"
reported = -2

[[record]]
compound = "N#CCCn1[nH]c(-c2ccccc2)cc1=O"
metric = "inhibition"
reported = -12

[[record]]
compound = "COc1ccc(-c2cc(=O)[nH][nH]2)cc1"
metric = "inhibition"
reported = 3


Inquiry: Give recorded inhibition with Protein-arginine deiminase type-3 (Homo sapiens) for the following compound: `Cn1c(=O)c2c(ncn2CC(=O)Nc2nc(-c3ccccc3Cl)cs2)n(C)c1=O`
Reply text: 3

Inquiry: Input Cc1nonc1OC(C)CNc1ccc([N+](=O)[O-])cc1 (configuration not stated)
Reply text: 7

Inquiry: Input O=C(NCC1CCCO1)c1cc2c([nH]c3ccccc32)c(-c2ccc(F)cc2)n1 (configuration not stated)
Reply text: -2

----------
Molecular target: Protein-arginine deiminase type-1 (Homo sapiens)
Assay: single-point PAD isozyme enzyme inhibition – biochemical, colorimetric, BAEE substrate, HTS hits, selectivity assay for PAD4 inhibitor project, late-stage follow-up (AID 588488)
Details: Recombinant PAD1-4, BAEE citrulline colorimetric absorbance; PAD1; at 10 µM; active compounds read high
metric: inhibition (%)
// note: answer is a bare numeric in %

The following compounds have reported results that may help.
[[record]]
compound = "COc1ccc(CCNC(=O)COC(=O)c2ccc(C)s2)cc1"
reported = 5

[[record]]
compound = "Cn1c(=O)c2c(ncn2CC(=O)Nc2nc(-c3ccccc3Cl)cs2)n(C)c1=O"
reported = 8


Here is another compound to look at.
Inquiry: Can you look up the measured inhibition of `Cc1cc(-c2nnc(SCC(=O)Nc3ccc(F)c(F)c3)n2N)n[nH]1` for me?
Reply text: 1

----------
Here, each record is paired with measured inhibition data.
Biological target: UniProtKB Q9UM07
Sequence (Q9UM07 whole entry, looked up): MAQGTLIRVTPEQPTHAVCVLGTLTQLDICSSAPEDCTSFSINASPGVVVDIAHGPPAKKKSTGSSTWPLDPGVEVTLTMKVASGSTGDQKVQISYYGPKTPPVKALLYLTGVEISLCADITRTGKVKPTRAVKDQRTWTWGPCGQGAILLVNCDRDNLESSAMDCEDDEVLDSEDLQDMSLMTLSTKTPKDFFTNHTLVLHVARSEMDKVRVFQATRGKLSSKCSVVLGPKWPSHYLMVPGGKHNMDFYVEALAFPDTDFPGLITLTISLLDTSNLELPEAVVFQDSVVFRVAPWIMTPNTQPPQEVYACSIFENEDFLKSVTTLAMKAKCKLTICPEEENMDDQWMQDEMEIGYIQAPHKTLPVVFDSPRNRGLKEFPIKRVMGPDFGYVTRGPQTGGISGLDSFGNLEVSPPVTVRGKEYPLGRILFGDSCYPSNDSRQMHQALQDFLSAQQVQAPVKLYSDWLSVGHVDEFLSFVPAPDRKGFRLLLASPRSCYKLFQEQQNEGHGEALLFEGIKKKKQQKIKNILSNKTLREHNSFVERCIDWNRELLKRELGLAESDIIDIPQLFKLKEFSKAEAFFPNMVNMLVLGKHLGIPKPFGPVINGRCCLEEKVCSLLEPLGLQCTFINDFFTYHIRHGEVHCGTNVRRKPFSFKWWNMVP
Experiment: single-point PAD isozyme enzyme inhibition – biochemical, colorimetric, BAEE substrate, HTS hits, selectivity assay for PAD4 inhibitor project, late-stage follow-up (AID 588488)
Conditions: Recombinant PAD1-4, BAEE citrulline colorimetric absorbance; PAD4; at 10 µM; active compounds read high
// note: answer is a bare numeric in %

[[record]]
molecule = "Cc1c(C(=O)N2CCCCC2)c(S(=O)(=O)N2CCN(c3ccc(Cl)cc3)CC2)c(C)n1C"
target_or_test_system = "UniProtKB Q9UM07"
reported = 15


Inquiry: Can you look up the measured inhibition of `Cc1cc(N(C)NC(=S)Nc2ccccc2)nc(C)n1` for me?
Reply text: 1

Inquiry: Input `COc1ccc(S(=O)(=O)Nc2ccccc2C)cc1`
Reply text: 18

----------
Target: Protein-arginine deiminase type-1 (Homo sapiens) (UniProt Q9ULC6)
Sequence (Q9ULC6 whole entry, looked up): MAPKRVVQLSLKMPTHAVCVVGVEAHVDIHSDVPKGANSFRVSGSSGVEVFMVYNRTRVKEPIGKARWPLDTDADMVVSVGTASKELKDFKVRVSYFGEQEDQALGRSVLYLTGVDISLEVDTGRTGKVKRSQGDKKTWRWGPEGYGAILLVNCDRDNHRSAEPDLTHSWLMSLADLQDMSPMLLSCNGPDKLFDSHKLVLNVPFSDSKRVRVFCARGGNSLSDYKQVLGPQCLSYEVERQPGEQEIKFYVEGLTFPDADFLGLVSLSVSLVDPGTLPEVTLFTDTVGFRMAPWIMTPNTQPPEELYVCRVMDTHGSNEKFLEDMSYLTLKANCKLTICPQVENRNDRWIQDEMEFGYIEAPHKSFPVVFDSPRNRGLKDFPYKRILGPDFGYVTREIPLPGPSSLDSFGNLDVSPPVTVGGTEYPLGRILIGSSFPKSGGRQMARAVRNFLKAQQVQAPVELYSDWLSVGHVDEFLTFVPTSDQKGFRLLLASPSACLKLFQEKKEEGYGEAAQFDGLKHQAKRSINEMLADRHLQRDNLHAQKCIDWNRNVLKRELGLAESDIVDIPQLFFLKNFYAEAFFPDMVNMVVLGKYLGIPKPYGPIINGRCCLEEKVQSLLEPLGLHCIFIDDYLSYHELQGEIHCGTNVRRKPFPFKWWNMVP
Assay: single-point PAD isozyme enzyme inhibition – biochemical, colorimetric, BAEE substrate, HTS hits, selectivity assay for PAD4 inhibitor project, late-stage follow-up (AID 588488)
Conditions: Recombinant PAD1-4, BAEE citrulline colorimetric absorbance; PAD1; at 10 µM; active compounds read high
metric: inhibition (%)
// note: answer is a bare numeric in %

The following molecules have reported results that may help.
[[record]]
molecule = "COC(=O)c1cc(C)nc(Sc2ccccc2N)n1"
target_or_test_system = "Protein-arginine deiminase type-1 (Homo sapiens) (UniProt Q9ULC6)"
unit_string = "%"
reported = 10

[[record]]
molecule = "CCN(CC)c1cccc(OC2=NS(=O)(=O)c3ccccc32)c1"
target_or_test_system = "Protein-arginine deiminase type-1 (Homo sapiens) (UniProt Q9ULC6)"
unit_string = "%"
reported = 3

[[record]]
molecule = "Cc1ccc(C2CC(=O)Oc3cc(O)ccc32)cc1 (stereo unspecified)"
target_or_test_system = "Protein-arginine deiminase type-1 (Homo sapiens) (UniProt Q9ULC6)"
unit_string = "%"
reported = 7

[[record]]
molecule = "COc1cccc2cc(C(=O)NC3CC(C)(C)NC(C)(C)C3)c(=O)oc12"
target_or_test_system = "Protein-arginine deiminase type-1 (Homo sapiens) (UniProt Q9ULC6)"
unit_string = "%"
reported = -2

[[record]]
molecule = "Cc1nonc1OC(C)CNc1ccc([N+](=O)[O-])cc1 (stereo unspecified)"
target_or_test_system = "Protein-arginine deiminase type-1 (Homo sapiens) (UniProt Q9ULC6)"
unit_string = "%"
reported = 8


Inquiry: Give recorded inhibition with Protein-arginine deiminase type-1 (Homo sapiens) (UniProt Q9ULC6) for the following molecule: `COc1ccc(S(=O)(=O)Nc2ccccc2C)cc1`
Reply text: 31

Inquiry: Input `Cc1nn(-c2ccccc2)c(C)c1NC(=O)COc1ccc(Cl)cc1Cl`
Reply text: 2

Inquiry: Input `CCN(CC)S(=O)(=O)c1ccc(N=NC2=C(O)CCCC2=O)cc1`
Reply text: 0

Inquiry: Input `CC(NC(=O)Nc1ccc(O)cc1)(C(F)(F)F)C(F)(F)F`
Reply text: 8

Inquiry: Input COc1cccc(/C=C2/CN(C)CC3=C2OC(N)=C(C#N)C3c2cccc(OC)c2)c1 (stereo unspecified)
Reply text: 18

Inquiry: Input `CCOc1nc(Nc2ccc(OC)cc2OC)nc(OCC)n1`
Reply text: 27
